# system: T1, BTN3A3 (Homo sapiens, UniProt O00478)
# T1 construct: Fc (Fc-chimera); purchased R&D systems; host or cells: HEK293
# T1 sequence (O00478 with tags, fused parts or gaps limits assumed): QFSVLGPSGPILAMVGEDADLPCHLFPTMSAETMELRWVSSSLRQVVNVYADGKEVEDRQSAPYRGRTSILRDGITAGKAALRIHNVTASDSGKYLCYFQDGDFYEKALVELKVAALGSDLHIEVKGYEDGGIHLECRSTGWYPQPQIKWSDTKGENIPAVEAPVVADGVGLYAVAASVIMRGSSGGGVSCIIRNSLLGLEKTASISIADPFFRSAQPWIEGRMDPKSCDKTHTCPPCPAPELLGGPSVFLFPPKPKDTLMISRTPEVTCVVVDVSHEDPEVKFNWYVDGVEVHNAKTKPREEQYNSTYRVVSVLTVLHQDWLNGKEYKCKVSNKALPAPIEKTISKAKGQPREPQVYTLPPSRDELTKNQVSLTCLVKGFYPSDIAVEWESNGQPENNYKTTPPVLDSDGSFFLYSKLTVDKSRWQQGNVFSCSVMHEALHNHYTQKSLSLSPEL
# run description: BTN isoform binding of yeast display antibodies (Octet isoform binding profile, binding affinity)
# recorded conditions: Table 4; Yes/No; hIgG1-297A isotype
recorded metric: BTN3A3 Binding

molecule: 3B (antibody, V domains shown) VH: QVQLVQSGAEVKKPGASVKVSCKASGYTFTSYYMHWVRQAPGQGLEWMGIINPSGGSTSYAQKFQGRVTMTRDTSTSTVYMELSSLRSEDTAVYYCARPSGDYSGYDALDVWGQGTMVTVSS VL: EIVLTQSPATLSLSPGERATLSCRASQSVSSYLAWYQQKPGQAPRLLIYDASNRATGIPARFSGSGSGTDFTLTISSLEPEDFAVYYCQQDPYWPITFGGGTKVEIK
value reported: Yes
